Assay: Acid-catalyzed decomposition / stability in acid, 37° C., HPLC
Type: physicochemical
Settings: ph 1 kcl/hcl buffer; pH 1.0, 37° C. (FIG. 3)
readoutType: half-life (s)
Please state the figure in s; there is no need to write the unit.

Sure, the documented half-life for Nc1ncnc2c1ncn2[C@H]1CC[C@@H](CO)O1 [Compound I, 2',3'dideoxyadenosine] is 35

These data points were gathered from patent US5565437A.
